Test system: DU-145 prostate
procedure details: NCI tumour cell line growth inhibition, 48 h
This listing pairs compounds with measured TGI.

compound	TGI
O=C(CCCN1CCC(O)(c2ccc(Cl)cc2)CC1)c1ccc(F)cc1	> 100 µM
NC(=O)c1cc([N+](=O)[O-])c(Cl)c([N+](=O)[O-])c1Cl	2.88 µM

Q: Supply recorded TGI for `CNC(=O)c1cc(Oc2ccc(NC(=O)Nc3ccc(Cl)c(C(F)(F)F)c3)c(F)c2)ccn1` here.
Ans: > 100 µM

Q: Fill in TGI for record CC(C)(C)C1CCC2c3c([nH]c4ccccc34)C3C(=O)N(c4ccc(Cl)cc4)C(=O)C3C2C1 (stereo not given)
Ans: > 100 µM

Q: Using known records, supply TGI for `COC(=O)[C@H](Cc1cnc[nH]1)NC(=O)[C@@H](NC(=O)Nc1cc(C(F)(F)F)cc(C(F)(F)F)c1)C(C)C`
Ans: 32.7 µM

Q: Note down TGI recorded for `NNC(=S)NCCNC(=S)NN`
Ans: > 100 µM

Q: Indicate its recorded TGI; the compound in question is `Cc1ccc(-c2nc(N/N=C/c3ccc(O)cc3)c3ccccc3n2)cc1`
Ans: 75.2 µM

Q: Write down TGI measured for item `O=C(NC(=O)c1cc(-c2ccccc2)n[nH]1)c1ccccc1`
Ans: > 100 µM

Q: Tell us which TGI value is on record for COC(=O)C1=C(O)[C@H](C(=O)OC)C2(O)C(C(=O)OC)[C@H](c3ccc(OC(=O)C(C)c4ccc(CC(C)C)cc4)cc3)C[C@@H]1[C@@H]2C(=O)OC (stereo not given in full)
Ans: 9.58 µM

Q: Tell me its TGI given `O=C(Nc1cccc([N+](=O)[O-])c1)c1n[nH]n(-c2cccc([N+](=O)[O-])c2)c1=O` as the entry.
Ans: > 100 µM

Q: Given the compound `C[C@@H]1C(=O)C[C@H]2C(C)(C)CCC[C@]2(C)[C@@]1(O)CCc1ccoc1` , write its reported TGI.
Ans: > 100 µM

----------
System: HCT-116 colon
procedure details: NCI tumour cell line growth inhibition, 48 h
endpoint: TGI

Known TGI results, listed for orientation:
In [3]: df
Out[3]:
                                   compound  endpoint     result
0  O=C(Nc1cccc(O)c1)c1ccc(NC2=C(Cl)C(=O)N(Cc3ccc(Cl)cc3Cl)C2=O)cc1       TGI  > 56.4 µM
1                     Cc1csc2c1-n1cccc1C2=O       TGI   > 100 µM
2  O=C1N2Cc3c4ccc5c3CN3C(=O)N6Cc7c(ccc(c7CN1C6(c1ccccc1)C23c1ccccc1)OCCOCCNCCOCCO4)OCCOCCNCCOCCO5 (centres undefined)       TGI   > 100 µM
3                 c1csc(-c2ccsc2-c2cccs2)c1       TGI   > 100 µM
4  Cc1cccc(C)c1NC(=O)C1=NC(=S)NC(c2ccccc2)C1c1nc2ccccc2s1 (centres undefined)       TGI   > 100 µM

Q: Supply TGI value. Item: `N#C/C(=C/c1ccc2c(c1)OCO2)C(=O)c1ccccc1`
Ans: > 100 µM

Q: Input `Cc1cc2c(cc1Cl)S/C(=C/C(=O)O)C(Nc1ccc3ncsc3c1)=NS2(=O)=O` , output reported TGI.
Ans: > 42.9 µM

Q: Please give measured TGI of the following entry: `COc1cc2c3c(n(C)c(=O)c2cc1OC)-c1cc2c(cc1/C3=C\CCCI)OCO2`
Ans: > 100 µM

Q: For the compound `Nc1ccc(C(=O)N/C(=C\c2cccc([N+](=O)[O-])c2)c2nc3[nH]c(=S)[nH]c(=O)c3[nH]2)cc1` , give its reported TGI.
Ans: > 100 µM
